Receptor-type tyrosine-protein phosphatase C (Homo sapiens, UniProt P08575): recorded IC50 for assorted compounds
Sequence (P08575 whole entry): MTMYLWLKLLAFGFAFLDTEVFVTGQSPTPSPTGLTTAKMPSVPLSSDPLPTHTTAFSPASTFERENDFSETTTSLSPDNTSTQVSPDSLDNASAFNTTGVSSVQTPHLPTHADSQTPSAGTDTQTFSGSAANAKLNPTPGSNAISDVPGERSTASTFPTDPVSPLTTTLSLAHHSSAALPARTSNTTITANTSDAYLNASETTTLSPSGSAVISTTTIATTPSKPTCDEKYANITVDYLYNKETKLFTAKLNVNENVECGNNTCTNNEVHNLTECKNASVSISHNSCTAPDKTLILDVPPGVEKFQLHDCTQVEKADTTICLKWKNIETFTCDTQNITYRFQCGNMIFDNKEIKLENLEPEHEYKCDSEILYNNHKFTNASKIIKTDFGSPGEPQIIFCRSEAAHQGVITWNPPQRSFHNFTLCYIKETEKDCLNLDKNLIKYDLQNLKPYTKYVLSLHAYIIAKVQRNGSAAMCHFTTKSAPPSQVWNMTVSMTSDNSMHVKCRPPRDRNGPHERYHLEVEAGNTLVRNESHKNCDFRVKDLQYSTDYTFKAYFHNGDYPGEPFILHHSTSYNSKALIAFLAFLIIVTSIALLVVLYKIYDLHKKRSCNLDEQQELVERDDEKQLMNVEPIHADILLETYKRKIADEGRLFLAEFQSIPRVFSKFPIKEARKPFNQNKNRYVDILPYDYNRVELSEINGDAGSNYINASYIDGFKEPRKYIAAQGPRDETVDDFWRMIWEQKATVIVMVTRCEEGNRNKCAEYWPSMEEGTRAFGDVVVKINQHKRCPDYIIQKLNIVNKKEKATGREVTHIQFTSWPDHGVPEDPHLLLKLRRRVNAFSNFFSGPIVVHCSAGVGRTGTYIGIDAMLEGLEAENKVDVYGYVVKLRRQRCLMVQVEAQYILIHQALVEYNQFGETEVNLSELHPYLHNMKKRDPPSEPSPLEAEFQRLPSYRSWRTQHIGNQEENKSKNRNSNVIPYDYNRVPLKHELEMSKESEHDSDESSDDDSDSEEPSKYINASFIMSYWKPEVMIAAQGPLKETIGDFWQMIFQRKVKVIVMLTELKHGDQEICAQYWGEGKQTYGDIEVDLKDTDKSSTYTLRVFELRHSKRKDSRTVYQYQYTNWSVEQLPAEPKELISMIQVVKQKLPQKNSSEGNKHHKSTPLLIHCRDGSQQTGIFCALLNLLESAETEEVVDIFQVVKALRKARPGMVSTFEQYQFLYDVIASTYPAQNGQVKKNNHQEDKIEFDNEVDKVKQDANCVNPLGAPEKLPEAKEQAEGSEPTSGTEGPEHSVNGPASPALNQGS

Please review the following examples before continuing.
Cc1c(Br)cc(NC(=O)C(c2ccccc2)S(=O)(=O)O)cc1Br (centres undefined) = > 200 µM
O=C(Nc1cc(C(F)(F)F)cc(C(F)(F)F)c1)C(c1ccccc1)S(=O)(=O)O (centres undefined) = > 200 µM

Task: Query IC50 on Receptor-type tyrosine-protein phosphatase C (Homo sapiens, UniProt P08575) for O=C(Nc1nc2ccc([N+](=O)[O-])cc2s1)C(c1ccccc1)S(=O)(=O)O (centres undefined)
Result: > 100 µM

Task: Query IC50 on Receptor-type tyrosine-protein phosphatase C (Homo sapiens, UniProt P08575) for O=C(Nc1ccc(-n2ccnc2)cc1)C(c1ccccc1)S(=O)(=O)O (centres undefined)
Result: > 100 µM

----------
Reported IC50 values are given for each entry in this list.
Target: Low molecular weight phosphotyrosine protein phosphatase (Homo sapiens, UniProt P24666)
Sequence (P24666 whole entry): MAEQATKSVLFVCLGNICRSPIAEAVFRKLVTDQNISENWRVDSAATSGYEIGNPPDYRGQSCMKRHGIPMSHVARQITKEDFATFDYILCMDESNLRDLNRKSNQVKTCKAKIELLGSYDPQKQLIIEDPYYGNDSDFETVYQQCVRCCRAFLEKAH
Experiment: Inhibition of His-tagged LMW-PTP isoform A (unknown origin) expressed in Escherichia coli BL21 cells using para-nitrophenyl phosphate as substrate incubated for 5 to 10 mins by microplate reader based spectrophotometric analysis
State the answer as a number, implicitly in µM.

O=C(Nc1nccs1)C(c1ccccc1)S(=O)(=O)O (stereo unspecified) = 72
O=C(Nc1nc2ccccc2s1)C(c1cccc(F)c1)S(=O)(=O)O (stereo unspecified) = 50
O=C(Nc1nc2ccc([N+](=O)[O-])cc2s1)C(c1ccccc1)S(=O)(=O)O (stereo unspecified) = 2.1

Task: Query IC50 on Low molecular weight phosphotyrosine protein phosphatase (Homo sapiens, UniProt P24666) for O=C(Nc1cc(C(F)(F)F)cc(C(F)(F)F)c1)C(c1ccccc1)S(=O)(=O)O (stereo unspecified)
Result: 6.39

Task: Query IC50 on Low molecular weight phosphotyrosine protein phosphatase (Homo sapiens, UniProt P24666) for Cc1ccc(C(C(=O)Nc2nc3ccccc3s2)S(=O)(=O)O)cc1 (stereo unspecified)
Result: 91.4

----------
Reported pIC50 values are given for each entry in this list.
molecular target: UniProt:Q13332
Sequence (Q13332 whole entry): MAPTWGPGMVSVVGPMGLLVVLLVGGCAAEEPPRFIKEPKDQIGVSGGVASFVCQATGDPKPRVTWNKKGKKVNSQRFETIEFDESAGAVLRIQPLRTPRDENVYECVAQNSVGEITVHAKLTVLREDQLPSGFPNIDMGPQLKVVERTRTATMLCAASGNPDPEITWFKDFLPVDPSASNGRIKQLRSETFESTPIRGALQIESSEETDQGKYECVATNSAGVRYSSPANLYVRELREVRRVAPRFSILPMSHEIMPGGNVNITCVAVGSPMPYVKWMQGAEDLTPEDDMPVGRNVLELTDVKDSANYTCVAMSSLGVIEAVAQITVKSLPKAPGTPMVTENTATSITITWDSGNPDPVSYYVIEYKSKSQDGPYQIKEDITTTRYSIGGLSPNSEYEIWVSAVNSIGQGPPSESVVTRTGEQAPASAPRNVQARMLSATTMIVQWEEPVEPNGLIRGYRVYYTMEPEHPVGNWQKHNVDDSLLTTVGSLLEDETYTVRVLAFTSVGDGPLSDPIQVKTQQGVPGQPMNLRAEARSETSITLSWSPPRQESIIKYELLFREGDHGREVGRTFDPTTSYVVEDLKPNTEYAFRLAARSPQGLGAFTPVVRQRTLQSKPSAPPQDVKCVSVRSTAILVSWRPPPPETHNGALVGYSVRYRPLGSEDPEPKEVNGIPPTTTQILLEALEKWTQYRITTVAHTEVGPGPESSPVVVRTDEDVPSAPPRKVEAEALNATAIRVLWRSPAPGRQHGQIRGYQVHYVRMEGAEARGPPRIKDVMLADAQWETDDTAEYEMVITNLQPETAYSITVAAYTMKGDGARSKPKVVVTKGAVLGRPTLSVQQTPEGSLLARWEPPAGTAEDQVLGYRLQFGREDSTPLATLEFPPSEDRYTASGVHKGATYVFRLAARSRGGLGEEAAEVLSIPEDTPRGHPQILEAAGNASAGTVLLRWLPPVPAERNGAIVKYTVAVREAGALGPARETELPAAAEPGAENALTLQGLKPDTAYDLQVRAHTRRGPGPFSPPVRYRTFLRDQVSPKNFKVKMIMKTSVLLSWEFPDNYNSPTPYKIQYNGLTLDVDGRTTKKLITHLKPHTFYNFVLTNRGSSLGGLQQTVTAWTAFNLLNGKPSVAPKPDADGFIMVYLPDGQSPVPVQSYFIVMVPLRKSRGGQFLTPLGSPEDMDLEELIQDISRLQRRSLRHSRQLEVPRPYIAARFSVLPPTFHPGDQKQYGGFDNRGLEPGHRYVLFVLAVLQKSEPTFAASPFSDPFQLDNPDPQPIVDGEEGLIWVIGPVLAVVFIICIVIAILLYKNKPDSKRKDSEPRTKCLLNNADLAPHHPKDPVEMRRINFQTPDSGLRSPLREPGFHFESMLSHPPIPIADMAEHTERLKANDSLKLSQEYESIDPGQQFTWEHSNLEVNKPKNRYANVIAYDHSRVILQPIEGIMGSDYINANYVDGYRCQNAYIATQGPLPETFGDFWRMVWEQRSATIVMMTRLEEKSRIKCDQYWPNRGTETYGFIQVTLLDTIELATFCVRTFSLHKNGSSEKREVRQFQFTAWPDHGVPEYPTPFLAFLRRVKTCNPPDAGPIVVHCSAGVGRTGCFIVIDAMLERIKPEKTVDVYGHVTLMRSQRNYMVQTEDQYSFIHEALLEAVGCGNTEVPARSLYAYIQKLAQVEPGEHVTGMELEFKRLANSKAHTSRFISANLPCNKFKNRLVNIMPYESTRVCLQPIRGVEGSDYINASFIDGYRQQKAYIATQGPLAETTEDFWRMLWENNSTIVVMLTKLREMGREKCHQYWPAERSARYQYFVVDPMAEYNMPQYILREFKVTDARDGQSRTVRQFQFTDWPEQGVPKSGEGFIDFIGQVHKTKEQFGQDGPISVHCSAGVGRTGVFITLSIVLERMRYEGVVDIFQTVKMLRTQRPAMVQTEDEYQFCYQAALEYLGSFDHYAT
pIC50: −log10 of the molar value.

O=C(Nc1ccc(-n2ccnc2)cc1)C(c1ccccc1)S(=O)(=O)O (centres undefined) = < 4.00

Task: Query pIC50 on UniProt:Q13332 for O=C(Nc1cc(C(F)(F)F)cc(C(F)(F)F)c1)C(c1ccccc1)S(=O)(=O)O (centres undefined)
Result: < 3.70

Task: Query pIC50 on UniProt:Q13332 for O=C(Nc1nc2ccc([N+](=O)[O-])cc2s1)C(c1ccccc1)S(=O)(=O)O (centres undefined)
Result: < 4.00

Task: Query pIC50 on UniProt:Q13332 for Cc1c(Br)cc(NC(=O)C(c2ccccc2)S(=O)(=O)O)cc1Br (centres undefined)
Result: < 3.70

----------
Reported pIC50 values are given for each entry in this list.
molecular target: Receptor-type tyrosine-protein phosphatase beta (Homo sapiens)
pIC50: −log10 of the molar value.

Please review the following examples before continuing.
O=C(Nc1nc2ccc([N+](=O)[O-])cc2s1)C(c1ccccc1)S(=O)(=O)O (centres undefined) = < 4.00
Cc1c(Br)cc(NC(=O)C(c2ccccc2)S(=O)(=O)O)cc1Br (centres undefined) = < 3.70
O=C(Nc1ccc(-n2ccnc2)cc1)C(c1ccccc1)S(=O)(=O)O (centres undefined) = < 4.00

Moving on to the next compound.
Task: Query pIC50 on Receptor-type tyrosine-protein phosphatase beta (Homo sapiens) for O=C(Nc1cc(C(F)(F)F)cc(C(F)(F)F)c1)C(c1ccccc1)S(=O)(=O)O (centres undefined)
Result: < 3.70

----------
Dual specificity protein phosphatase 6 (Homo sapiens): recorded IC50 for assorted compounds

Task: Query IC50 on Dual specificity protein phosphatase 6 (Homo sapiens) for O=C(Nc1cc(C(F)(F)F)cc(C(F)(F)F)c1)C(c1ccccc1)S(=O)(=O)O (centres undefined)
Result: > 200 µM

----------
Reported pIC50 values are given for each entry in this list.
target: RNA polymerase II subunit A C-terminal domain phosphatase SSU72 (Homo sapiens, UniProt Q9NP77); test: Inhibition of His-tagged SSu72 (unknown origin) expressed in Escherichia coli BL21 cells using para-nitrophenyl phosphate as substrate incubated for 5 to 10 mins by microplate reader based spectrophotometric analysis
Sequence (Q9NP77 whole entry, the tested form may be a part): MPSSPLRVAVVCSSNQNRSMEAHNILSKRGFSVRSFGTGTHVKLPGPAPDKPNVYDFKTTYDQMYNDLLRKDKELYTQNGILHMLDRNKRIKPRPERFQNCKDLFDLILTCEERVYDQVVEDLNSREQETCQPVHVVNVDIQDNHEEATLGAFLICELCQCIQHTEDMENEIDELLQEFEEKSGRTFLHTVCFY
Field pIC50 (float): negative decimal logarithm of the concentration in molar.

O=C(Nc1cc(C(F)(F)F)cc(C(F)(F)F)c1)C(c1ccccc1)S(=O)(=O)O (stereo not given) = 4.08

Moving on to the next compound.
Task: Which value of pIC50 has been reported for O=C(Nc1nc2ccccc2s1)C(c1ccccc1)S(=O)(=O)O (stereo not given) in the records?
Result: 4.16

----------
target: Receptor-type tyrosine-protein phosphatase alpha (Homo sapiens)
Sequence (P18433 whole entry): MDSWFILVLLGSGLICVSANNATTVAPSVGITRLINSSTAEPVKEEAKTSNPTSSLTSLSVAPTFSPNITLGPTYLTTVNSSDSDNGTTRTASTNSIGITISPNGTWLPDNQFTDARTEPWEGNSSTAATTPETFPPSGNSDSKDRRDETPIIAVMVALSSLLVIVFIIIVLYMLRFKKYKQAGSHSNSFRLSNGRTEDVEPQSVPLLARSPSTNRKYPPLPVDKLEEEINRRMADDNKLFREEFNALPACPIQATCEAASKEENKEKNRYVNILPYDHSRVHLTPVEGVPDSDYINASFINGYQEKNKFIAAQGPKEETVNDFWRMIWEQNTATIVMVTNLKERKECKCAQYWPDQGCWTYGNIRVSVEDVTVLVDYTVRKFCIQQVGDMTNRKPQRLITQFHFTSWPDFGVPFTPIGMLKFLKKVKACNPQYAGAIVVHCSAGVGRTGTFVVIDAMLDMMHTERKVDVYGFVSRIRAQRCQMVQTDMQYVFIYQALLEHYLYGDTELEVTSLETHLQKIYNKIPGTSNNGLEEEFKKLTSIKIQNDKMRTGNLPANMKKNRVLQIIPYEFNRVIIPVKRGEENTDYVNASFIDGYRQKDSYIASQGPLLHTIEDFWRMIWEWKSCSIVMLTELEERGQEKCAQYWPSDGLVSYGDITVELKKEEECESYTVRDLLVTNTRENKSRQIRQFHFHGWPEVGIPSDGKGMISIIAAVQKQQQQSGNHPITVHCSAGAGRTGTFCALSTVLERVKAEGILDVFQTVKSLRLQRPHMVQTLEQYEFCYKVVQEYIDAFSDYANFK
pIC50: −log10 of the molar value.
measured-quantity: pIC50

Please review the following examples before continuing.
O=C(Nc1nc2ccc([N+](=O)[O-])cc2s1)C(c1ccccc1)S(=O)(=O)O (centres undefined) = < 4.00
Cc1c(Br)cc(NC(=O)C(c2ccccc2)S(=O)(=O)O)cc1Br (centres undefined) = < 3.70
O=C(Nc1ccc(-n2ccnc2)cc1)C(c1ccccc1)S(=O)(=O)O (centres undefined) = < 4.00

Moving on to the next molecule.
Task: Query pIC50 on Receptor-type tyrosine-protein phosphatase alpha (Homo sapiens) for O=C(Nc1cc(C(F)(F)F)cc(C(F)(F)F)c1)C(c1ccccc1)S(=O)(=O)O (centres undefined)
Result: < 3.70

----------
Tyrosine-protein phosphatase non-receptor type 13 (Homo sapiens, UniProt Q12923): recorded IC50 for assorted molecules

Please review the following examples before continuing.
O=C(Nc1nc2ccc([N+](=O)[O-])cc2s1)C(c1ccccc1)S(=O)(=O)O (centres undefined) = > 100 µM
Cc1c(Br)cc(NC(=O)C(c2ccccc2)S(=O)(=O)O)cc1Br (centres undefined) = > 200 µM
O=C(Nc1ccc(-n2ccnc2)cc1)C(c1ccccc1)S(=O)(=O)O (centres undefined) = > 100 µM

Moving on to the next molecule.
Task: Query IC50 on Tyrosine-protein phosphatase non-receptor type 13 (Homo sapiens, UniProt Q12923) for O=C(Nc1cc(C(F)(F)F)cc(C(F)(F)F)c1)C(c1ccccc1)S(=O)(=O)O (centres undefined)
Result: 76 µM

----------
Serine/threonine-protein phosphatase 5 (Homo sapiens, UniProt P53041): recorded IC50 for assorted molecules

Please review the following examples before continuing.
O=C(Nc1ccc(-n2ccnc2)cc1)C(c1ccccc1)S(=O)(=O)O (stereo not given) = > 100 µM
O=C(Nc1cc(C(F)(F)F)cc(C(F)(F)F)c1)C(c1ccccc1)S(=O)(=O)O (stereo not given) = > 200 µM
O=C(Nc1nc2ccc([N+](=O)[O-])cc2s1)C(c1ccccc1)S(=O)(=O)O (stereo not given) = > 100 µM
Cc1c(Br)cc(NC(=O)C(c2ccccc2)S(=O)(=O)O)cc1Br (stereo not given) = > 200 µM

Moving on to the next molecule.
Task: Query IC50 on Serine/threonine-protein phosphatase 5 (Homo sapiens, UniProt P53041) for O=C(Nc1ccc(OCc2ccccc2)c(Cl)c1)C(c1ccccc1)S(=O)(=O)O (stereo not given)
Result: > 200 µM

----------
Receptor-type tyrosine-protein phosphatase epsilon (Homo sapiens): recorded pIC50 for assorted compounds
Sequence (P23469 whole entry): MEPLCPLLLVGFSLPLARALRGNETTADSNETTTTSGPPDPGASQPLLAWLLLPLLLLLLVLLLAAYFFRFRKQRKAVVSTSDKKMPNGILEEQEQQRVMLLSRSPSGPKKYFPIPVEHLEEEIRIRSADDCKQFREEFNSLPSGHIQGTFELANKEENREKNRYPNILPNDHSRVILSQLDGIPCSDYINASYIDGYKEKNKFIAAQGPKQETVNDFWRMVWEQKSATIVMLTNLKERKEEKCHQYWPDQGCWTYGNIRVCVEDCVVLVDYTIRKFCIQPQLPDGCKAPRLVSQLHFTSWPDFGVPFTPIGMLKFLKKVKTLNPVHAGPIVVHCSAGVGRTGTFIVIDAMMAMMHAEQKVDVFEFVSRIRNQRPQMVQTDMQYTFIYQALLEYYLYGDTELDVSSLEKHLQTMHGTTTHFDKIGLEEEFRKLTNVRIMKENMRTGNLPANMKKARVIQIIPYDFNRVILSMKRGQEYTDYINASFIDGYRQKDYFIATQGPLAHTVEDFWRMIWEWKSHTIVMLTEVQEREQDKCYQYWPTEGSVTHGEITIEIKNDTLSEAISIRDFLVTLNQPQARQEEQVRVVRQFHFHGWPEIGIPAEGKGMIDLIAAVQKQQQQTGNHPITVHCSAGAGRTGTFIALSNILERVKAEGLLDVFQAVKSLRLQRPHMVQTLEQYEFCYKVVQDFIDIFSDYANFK
pIC50: −log10 of the molar value.

Please review the following examples before continuing.
O=C(Nc1ccc(-n2ccnc2)cc1)C(c1ccccc1)S(=O)(=O)O (stereo not given) = < 4.00
O=C(Nc1ccc(OCc2ccccc2)c(Cl)c1)C(c1ccccc1)S(=O)(=O)O (stereo not given) = < 3.70
O=C(Nc1nc2ccc([N+](=O)[O-])cc2s1)C(c1ccccc1)S(=O)(=O)O (stereo not given) = < 4.00
Cc1c(Br)cc(NC(=O)C(c2ccccc2)S(=O)(=O)O)cc1Br (stereo not given) = < 3.70

Moving on to the next compound.
Task: Which value of pIC50 has been reported for O=C(Nc1cc(C(F)(F)F)cc(C(F)(F)F)c1)C(c1ccccc1)S(=O)(=O)O (stereo not given) in the records?
Result: < 3.70

----------
biological target: UniProt P24666; assay: Inhibition of His-tagged LMW-PTP isoform A (unknown origin) expressed in Escherichia coli BL21 cells using para-nitrophenyl phosphate as substrate incubated for 5 to 10 mins by microplate reader based spectrophotometric analysis
Reported IC50 values are given for each entry in this list.

Please review the following examples before continuing.
Cc1ccccc1C(C(=O)Nc1nc2ccccc2s1)S(=O)(=O)O (stereo unspecified) = > 200 µM
O=C(Nc1nc2ccccc2s1)C(c1cccc([N+](=O)[O-])c1)S(=O)(=O)O (stereo unspecified) = > 200 µM

Task: Which value of IC50 has been reported for O=C(Nc1nc2ccccc2s1)C(c1ccccc1F)S(=O)(=O)O (stereo unspecified) in the records?
Result: > 200 µM

Task: Which value of IC50 has been reported for O=C(Cc1ccccc1)Nc1nc2ccc([N+](=O)[O-])cc2s1 in the records?
Result: > 100 µM

Task: Which value of IC50 has been reported for O=C(Nc1nc2ccccc2s1)C(c1cccc(C(F)(F)F)c1)S(=O)(=O)O (stereo unspecified) in the records?
Result: > 200 µM

Task: Which value of IC50 has been reported for O=C(Nc1ccccc1)C(c1ccccc1)S(=O)(=O)O (stereo unspecified) in the records?
Result: > 100 µM
